Taken from ChEMBL document CHEMBL1909046.

Target: Sigma non-opioid intracellular receptor 1 (Homo sapiens)
Sequence (Q99720 whole entry): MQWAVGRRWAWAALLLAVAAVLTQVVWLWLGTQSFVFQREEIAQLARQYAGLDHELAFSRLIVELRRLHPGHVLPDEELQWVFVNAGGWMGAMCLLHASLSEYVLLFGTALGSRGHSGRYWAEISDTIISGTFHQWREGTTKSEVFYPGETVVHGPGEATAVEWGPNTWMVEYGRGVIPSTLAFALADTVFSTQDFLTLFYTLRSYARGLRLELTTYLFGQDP
Experiment: DRUGMATRIX: Sigma1 radioligand binding (ligand: [3H] Haloperidol)
Format: cell membranes, Jurkat, Membrane
Conditions: Not Active = under 50% inhibition at 10 µM; read-out: Ki
endpoint: Ki

Would you please look over these solved cases?
>  <molecule>
CC(CCc1ccccc1)NCC(O)c1ccc(O)c(C(N)=O)c1 (stereo not drawn)

>  <endpointResult>
763 nM

$$$$
>  <molecule>
CN(C)CCCC1(c2ccc(F)cc2)OCc2cc(C#N)ccc21 (stereo not drawn)

>  <endpointResult>
167 nM

$$$$

Given CCc1ccc(C(=O)C(C)CN2CCCCC2)cc1 (stereo not drawn) , state its recorded Ki.
1.7 nM

* * *

Molecular target: Mitogen-activated protein kinase 14 (Homo sapiens, UniProt Q16539); note: in other assays of this panel Not Active means under 50% inhibition at 10 µM;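 note: inhibition of p38alpha enzyme activity in a biochemical kinase assay, with myelin basic protein serving as substrate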
Sequence (Q16539 whole entry): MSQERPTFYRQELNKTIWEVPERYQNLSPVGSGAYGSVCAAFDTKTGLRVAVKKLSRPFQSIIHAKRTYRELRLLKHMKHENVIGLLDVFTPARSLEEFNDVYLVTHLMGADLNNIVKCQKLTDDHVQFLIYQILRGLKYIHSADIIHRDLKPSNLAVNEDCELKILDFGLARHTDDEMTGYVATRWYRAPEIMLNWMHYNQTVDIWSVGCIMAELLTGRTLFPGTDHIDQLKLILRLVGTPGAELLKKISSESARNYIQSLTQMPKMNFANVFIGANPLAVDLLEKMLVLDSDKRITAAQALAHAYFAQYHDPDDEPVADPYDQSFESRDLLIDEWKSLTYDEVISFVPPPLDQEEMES
Design: species or system Escherichia coli
endpoint: IC50

>  <compound>
CN1C(C(=O)Nc2ccccn2)=C(O)c2ccccc2S1(=O)=O [PIROXICAM]

>  <endpoint>
IC50

>  <endpointResult>
Not Active

$$$$
>  <compound>
Clc1ccccc1C(c1ccccc1)(c1ccccc1)n1ccnc1 [CLOTRIMAZOLE]

>  <endpoint>
IC50

>  <endpointResult>
Not Active

$$$$
>  <compound>
CCOC(=O)[C@H](CCc1ccccc1)N[C@@H](C)C(=O)N1[C@H](C(=O)O)C[C@@H]2CCC[C@@H]21

>  <endpoint>
IC50

>  <endpointResult>
Not Active

$$$$
>  <compound>
COc1c(N2CCNC(C)C2)c(F)cc2c(=O)c(C(=O)O)cn(C3CC3)c12 (centres undefined) [GATIFLOXACIN]

>  <endpoint>
IC50

>  <endpointResult>
Not Active

$$$$

* * *

Assay: DRUGMATRIX: Sigma2 radioligand binding (ligand: [3H] Ifenprodil)
Assay type: cell membranes, Rattus norvegicus, Wistar, Brain, Membrane
Details: Not Active = under 50% inhibition at 10 µM
endpoint: Ki

>  <compound>
CO[C@@H]1[C@@H](O[C@@H]2O[C@H](C)[C@@H](O[C@H]3C[C@@](C)(O)[C@@H](OC(=O)CC(C)C)[C@H](C)O3)[C@H](N(C)C)[C@H]2O)[C@@H](CC=O)C[C@@H](C)[C@@H](O)/C=C/C=C/C[C@@H](C)OC(=O)C[C@H]1O

>  <endpoint>
Ki

>  <endpointResult>
Not Active

$$$$
>  <compound>
CNC(=O)Oc1ccc2c(c1)[C@]1(C)CCN(C)[C@@H]1N2C

>  <endpoint>
Ki

>  <endpointResult>
Not Active

$$$$
>  <compound>
NNc1ccccc1 [PHENYLHYDRAZINE]

>  <endpoint>
Ki

>  <endpointResult>
Not Active

$$$$

* * *

Assay: DRUGMATRIX: Sodium/nucleoside co-transporter radioligand binding (ligand: nitrobenzylthioinosine)
Type: cell membranes, Cavia porcellus, Dunkin-Hartley, Cerebral cortex, Membrane
Conditions: Not Active = under 50% inhibition at 10 µM; read-out: Ki
endpoint: Ki (µM)
Please state the figure in µM; there is no need to write the unit.

>  <compoundStructureString>
CC(=O)[C@H]1CC[C@H]2[C@@H]3CCC4=CC(=O)CC[C@]4(C)[C@H]3CC[C@]12C

>  <valueUnit>
µM

>  <Ki>
6.7

$$$$

Moving on to another compound below.
Given "COC(=O)C1=C(C)NC(C)=C(C(=O)OC)C1c1ccccc1[N+](=O)[O-]" , state its recorded Ki.
8.15
